TARGET: 5-hydroxytryptamine receptor 1A (Rattus norvegicus)
Sequence (P19327 whole entry): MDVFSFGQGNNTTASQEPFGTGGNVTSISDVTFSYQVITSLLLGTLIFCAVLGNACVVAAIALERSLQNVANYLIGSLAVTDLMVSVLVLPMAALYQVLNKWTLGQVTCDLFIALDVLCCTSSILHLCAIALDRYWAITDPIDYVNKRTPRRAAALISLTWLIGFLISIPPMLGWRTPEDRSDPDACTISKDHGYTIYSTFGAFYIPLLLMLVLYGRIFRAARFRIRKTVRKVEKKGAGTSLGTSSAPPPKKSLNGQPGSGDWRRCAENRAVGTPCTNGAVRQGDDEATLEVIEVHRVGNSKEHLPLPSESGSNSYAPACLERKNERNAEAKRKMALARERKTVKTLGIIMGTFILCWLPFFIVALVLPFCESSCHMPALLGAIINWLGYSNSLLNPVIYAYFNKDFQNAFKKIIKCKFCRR
TEST PROTOCOL: In vitro binding affinity at 5-HT1A receptors assayed by displacement of [3H]8-OH-DPAT from 5-hydroxytryptamine 1A receptor in rat hippocampal membranes
Assay type: cell membranes, Hippocampus, Membrane
pKi: −log10 of the molar value.
So basically: pKi at 8 or higher? That is MET. Lower than 8? That is NOT MET.

Reference set, count: 5
CCN(C(C)C)[C@H]1COc2cccc(C(=O)NC(C)C)c2C1 : NOT MET
CCCN(C(C)C)[C@H]1COc2cccc(C(C)=O)c2C1 : MET
CNC(=O)c1cccc2c1C[C@H](NCCCCN1C(=O)CC3(CCCC3)CC1=O)CO2 : NOT MET
CC(C)N[C@H]1COc2cccc(C(N)=O)c2C1 : NOT MET
CCCN(CC(C)(C)C)[C@@H]1COc2cccc(C(=O)NC)c2C1 : MET

Input: Quick check, pKi >= 8? CCCN(C1CCCC1)[C@H]1COc2cccc(C(=O)NC)c2C1
Output: MET

Input: Quick check, pKi >= 8? CCCN(C1CCCC1)[C@@H]1COc2cccc(C(=O)NC)c2C1
Output: NOT MET

Input: Quick check, pKi >= 8? CCCN(C(C)C)[C@H]1COc2cccc(C(N)=O)c2C1
Output: MET

Input: Quick check, pKi >= 8? CCCN(C1CCCC1)[C@H]1COc2cccc(C(N)=O)c2C1
Output: MET

Input: Quick check, pKi >= 8? CCCN(CCCCN1C(=O)CC2(CCCC2)CC1=O)[C@H]1COc2cccc(C(=O)NC)c2C1
Output: MET

###

TARGET: D(1A) dopamine receptor (Rattus norvegicus, UniProt P18901)
Sequence (P18901 whole entry): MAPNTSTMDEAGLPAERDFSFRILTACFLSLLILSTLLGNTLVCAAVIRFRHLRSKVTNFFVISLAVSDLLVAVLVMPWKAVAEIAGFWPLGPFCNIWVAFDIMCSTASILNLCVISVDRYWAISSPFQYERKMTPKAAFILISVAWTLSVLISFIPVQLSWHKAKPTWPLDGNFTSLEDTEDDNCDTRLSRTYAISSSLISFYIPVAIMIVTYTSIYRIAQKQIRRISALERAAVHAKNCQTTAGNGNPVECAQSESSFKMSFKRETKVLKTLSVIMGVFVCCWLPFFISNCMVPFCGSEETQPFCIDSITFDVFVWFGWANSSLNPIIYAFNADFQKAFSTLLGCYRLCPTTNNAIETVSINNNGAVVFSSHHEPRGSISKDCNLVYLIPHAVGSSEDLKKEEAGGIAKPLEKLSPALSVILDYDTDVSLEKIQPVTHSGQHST
TEST PROTOCOL: In vitro binding affinity at D1 receptor by measuring its ability to displace [3H]SCH-23390 from Dopamine receptor D1 in rat striatum
ATTRIBUTE MEASURED: Ki

Input: Could you share what Ki was measured for CCCN(CCC)[C@H]1COc2cccc(C(=O)NC(C)C)c2C1 , tested on D(1A) dopamine receptor (Rattus norvegicus, UniProt P18901)?
Output: > 1000 nM

Input: Could you share what Ki was measured for CC(C)N[C@H]1COc2cccc(C(N)=O)c2C1 , tested on D(1A) dopamine receptor (Rattus norvegicus, UniProt P18901)?
Output: > 1000 nM

Input: Could you share what Ki was measured for CCCN[C@H]1COc2cccc(C(N)=O)c2C1 , tested on D(1A) dopamine receptor (Rattus norvegicus, UniProt P18901)?
Output: > 1000 nM

Input: Could you share what Ki was measured for CCCN(C(C)C)[C@@H]1COc2cccc(C(=O)NC(C)C)c2C1 , tested on D(1A) dopamine receptor (Rattus norvegicus, UniProt P18901)?
Output: > 50000 nM

Input: Could you share what Ki was measured for CCCN(C(C)C)[C@H]1COc2cccc(C(=O)NC(C)C)c2C1 , tested on D(1A) dopamine receptor (Rattus norvegicus, UniProt P18901)?
Output: > 50000 nM

Input: Could you share what Ki was measured for CCCN(C1CCCC1)[C@H]1COc2cccc(C(N)=O)c2C1 , tested on D(1A) dopamine receptor (Rattus norvegicus, UniProt P18901)?
Output: > 4000 nM

Input: Could you share what Ki was measured for CCCN(C(C)C)[C@H]1COc2cccc(C(N)=O)c2C1 , tested on D(1A) dopamine receptor (Rattus norvegicus, UniProt P18901)?
Output: > 1000 nM

Input: Could you share what Ki was measured for CCN(C(C)C)[C@H]1COc2cccc(C(=O)NC(C)C)c2C1 , tested on D(1A) dopamine receptor (Rattus norvegicus, UniProt P18901)?
Output: > 1000 nM

Input: Could you share what Ki was measured for CC(C)NC(=O)c1cccc2c1C[C@@H](NC(C)C)CO2 , tested on D(1A) dopamine receptor (Rattus norvegicus, UniProt P18901)?
Output: > 1000 nM

Input: Could you share what Ki was measured for NC(=O)c1cccc2c1C[C@@H](N)CO2 , tested on D(1A) dopamine receptor (Rattus norvegicus, UniProt P18901)?
Output: > 1000 nM

###

# Ki per entry
TARGET: D(2) dopamine receptor (Homo sapiens)
Sequence (P14416 whole entry): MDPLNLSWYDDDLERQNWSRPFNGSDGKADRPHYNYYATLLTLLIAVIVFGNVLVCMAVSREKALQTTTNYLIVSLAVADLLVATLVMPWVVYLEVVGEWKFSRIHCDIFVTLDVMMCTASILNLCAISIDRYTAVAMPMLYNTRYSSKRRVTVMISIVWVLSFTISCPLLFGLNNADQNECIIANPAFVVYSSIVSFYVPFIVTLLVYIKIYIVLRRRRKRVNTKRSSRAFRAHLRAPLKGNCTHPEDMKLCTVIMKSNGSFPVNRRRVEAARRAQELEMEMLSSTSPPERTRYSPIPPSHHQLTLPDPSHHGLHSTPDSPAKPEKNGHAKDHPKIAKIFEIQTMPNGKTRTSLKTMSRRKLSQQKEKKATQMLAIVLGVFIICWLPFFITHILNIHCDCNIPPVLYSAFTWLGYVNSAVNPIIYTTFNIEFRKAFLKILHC
TEST PROTOCOL: In vitro binding affinity at human cloned Dopamine receptor D2A measured by ability to displace [3H]raclopride from D2A receptor expressed in mouse fibroblast (LtK-) cells
Type: cell-based

Known Ki results, listed for orientation:
CCCN(CCC)[C@H]1COc2cccc(C(=O)NC(C)C)c2C1 : > 1000 nM
CCCN(C(C)C)[C@@H]1COc2cccc(C(=O)NC(C)C)c2C1 : > 50000 nM
CCCN(C1CCCC1)[C@H]1COc2cccc(C(N)=O)c2C1 : > 1000 nM
NC(=O)c1cccc2c1C[C@@H](N)CO2 : > 1000 nM

Input: Would you mind telling me what Ki value was observed for CC(C)N[C@H]1COc2cccc(C(N)=O)c2C1 ?
Output: > 1000 nM

Input: Would you mind telling me what Ki value was observed for CCN(C(C)C)[C@H]1COc2cccc(C(=O)NC(C)C)c2C1 ?
Output: > 1000 nM

Input: Would you mind telling me what Ki value was observed for CC(C)NC(=O)c1cccc2c1C[C@@H](NC(C)C)CO2 ?
Output: > 1000 nM

Input: Would you mind telling me what Ki value was observed for CCCN(C(C)C)[C@H]1COc2cccc(C(N)=O)c2C1 ?
Output: > 50000 nM

Input: Would you mind telling me what Ki value was observed for CCCN[C@H]1COc2cccc(C(N)=O)c2C1 ?
Output: > 1000 nM

Input: Would you mind telling me what Ki value was observed for CCCN(C(C)C)[C@H]1COc2cccc(C(=O)NC(C)C)c2C1 ?
Output: > 50000 nM

###

TARGET: UniProtKB P08908
Sequence (whole entry): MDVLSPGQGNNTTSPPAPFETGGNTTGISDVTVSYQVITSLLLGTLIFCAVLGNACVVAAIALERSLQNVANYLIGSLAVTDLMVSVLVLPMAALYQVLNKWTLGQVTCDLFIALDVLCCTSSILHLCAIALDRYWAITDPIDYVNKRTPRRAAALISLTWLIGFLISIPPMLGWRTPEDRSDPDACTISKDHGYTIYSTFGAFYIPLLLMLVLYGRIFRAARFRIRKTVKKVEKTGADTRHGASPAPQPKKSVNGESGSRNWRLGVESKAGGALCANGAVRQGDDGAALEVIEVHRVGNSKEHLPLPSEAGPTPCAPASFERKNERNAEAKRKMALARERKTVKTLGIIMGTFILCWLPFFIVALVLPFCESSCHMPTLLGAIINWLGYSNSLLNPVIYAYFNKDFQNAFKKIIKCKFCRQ
TEST PROTOCOL: Percent inhibition of vasoactive intestinal polypeptide-induced (VIP-induced) cAMP formation in GH4ZD10 cells expressing 5-HT1A receptor at 50 uM relative to 5-HT
Format: functional, cell-based
So basically: Efficacy at 80% or higher? That is 1.0. Lower than 80%? That is 0.0.

CCCN(CCCCN1C(=O)CC2(CCCC2)CC1=O)[C@H]1COc2cccc(C(=O)NC)c2C1 : 0.0
CCCN(C(C)C)[C@@H]1COc2cccc(C(C)=O)c2C1 : 1.0
CCCN[C@H]1COc2cccc(C(N)=O)c2C1 : 0.0
CCCN(CC(C)C)[C@H]1COc2cccc(C(=O)NC)c2C1 : 1.0
CC(C)N[C@H]1COc2cccc(C(N)=O)c2C1 : 0.0

Input: Quick check, Efficacy >= 80%? CCCN(CCC)[C@@H]1COc2cccc(C(=O)NC(C)C)c2C1
Output: 1.0

Input: Quick check, Efficacy >= 80%? CCCN(CC(C)(C)C)[C@H]1COc2cccc(C(=O)NC)c2C1
Output: 1.0

###

TARGET: UniProtKB P08908
Sequence (whole entry): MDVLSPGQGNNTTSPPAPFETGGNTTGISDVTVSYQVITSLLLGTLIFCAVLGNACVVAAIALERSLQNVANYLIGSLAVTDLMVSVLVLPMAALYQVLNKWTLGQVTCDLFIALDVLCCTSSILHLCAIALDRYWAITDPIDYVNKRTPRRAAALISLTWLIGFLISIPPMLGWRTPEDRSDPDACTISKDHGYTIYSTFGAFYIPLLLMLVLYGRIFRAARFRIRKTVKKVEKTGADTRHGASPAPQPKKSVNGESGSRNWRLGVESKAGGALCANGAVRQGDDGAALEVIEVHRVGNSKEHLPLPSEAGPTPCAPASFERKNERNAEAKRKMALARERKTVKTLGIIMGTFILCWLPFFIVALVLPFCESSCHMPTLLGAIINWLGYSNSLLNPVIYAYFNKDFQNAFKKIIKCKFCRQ
TEST PROTOCOL: Percent inhibition of vasoactive intestinal polypeptide-induced (VIP-induced) cAMP formation in GH4ZD10 cells expressing 5-HT1A receptor at 50 uM relative to 5-HT
Assay type: functional, cell-based
So basically: Efficacy at 60% or higher? That is satisfied. Lower than 60%? That is not satisfied.

Reference set, count: 3
CCCN(C(C)C)[C@H]1COc2cccc(C(=O)OC)c2C1 : satisfied
CCCN(CCC)[C@H]1COc2cccc(C(=O)NC(C)C)c2C1 : not satisfied
CCCN(CCCCN1C(=O)CC2(CCCC2)CC1=O)[C@@H]1COc2cccc(C(=O)NC)c2C1 : satisfied

Input: Quick check, Efficacy >= 60%? CCCN(C1CCCC1)[C@@H]1COc2cccc(C(=O)NC)c2C1
Output: satisfied

Input: Quick check, Efficacy >= 60%? CCCN(C1CCCC1)[C@H]1COc2cccc(C(=O)NC)c2C1
Output: satisfied
